target: HLA-A*26:01; assay: IEDB peptide-MHC binding, purified MHC/competitive/radioactivity; filed as Kd, often an IC50 or EC50 that approximates it; bounds were set here for any values at or beyond the usual limits of such assays; conditions: source organism: Dengue virus 3 Martinique/1243/1999
assay endpoint: Kd (nM)
Give the value, in units of nM, as a plain number.

Sure, the documented Kd for ETYQLWTAL is 181

* * *

Each entry below carries its reported pKd.
target: HLA-A*02:03; assay: IEDB peptide-MHC binding, purified MHC/competitive/radioactivity; filed as Kd, often an IC50 or EC50 that approximates it; bounds were set here for any values at or beyond the usual limits of such assays; settings: source organism: Dengue virus 3 Martinique/1243/1999
// field semantics: pKd = negative decimal log of concentration (mol/L)

RLATAIAGA | 7.94

Note to self: pKd recorded for LLLGVGLAMA was 8.63

* * *

target: HLA-B*39:01; assay: IEDB peptide-MHC binding, purified MHC/competitive/fluorescence; filed as Kd, often an IC50 or EC50 that approximates it; bounds were set here for any values at or beyond the usual limits of such assays; conditions: source organism: Influenza A virus (A/Victoria/1968(H3N2))
assay endpoint: Kd

Kd reported for this sequence NMDKAVKLY : ≥ 20 µM

* * *

biological target: HLA-A*02:02; assay: IEDB peptide-MHC binding, purified MHC/competitive/radioactivity; filed as Kd, often an IC50 or EC50 that approximates it; bounds were set here for any values at or beyond the usual limits of such assays; conditions: source organism: SARS coronavirus Tor2
Attribute: Kd
Numeric answer only, unit nM assumed.

YLVQQESSFV | 12700
GALDVSASV | 0.718
AIAACAMLLV | 5.9
VMYASALVLL | 0.251
KLFTIAMWLL | 8.53

Could you now consider this next sequence?
Just so you know, measured Kd for FQFICNLLLL came out at 7.94

* * *

biological target: HLA-A*30:01; experiment: IEDB peptide-MHC binding, purified MHC/competitive/radioactivity; filed as Kd, often an IC50 or EC50 that approximates it; bounds were set here for any values at or beyond the usual limits of such assays; conditions: source organism: Dengue virus 4 Philippines/H241/1956
assay endpoint: pKd
Remember, pKd is on a log scale: it is -log10 of the molar concentration.

Solved entries:
KLRPKWLDA | 7.49
VTNIELEPPF | 6.33

The sequence listed as FTTRHRKPTY shows pKd equal to 5.71

* * *

target: HLA-B*08:01; experiment: IEDB peptide-MHC binding, purified MHC/direct/fluorescence; filed as Kd, often an IC50 or EC50 that approximates it; bounds were set here for any values at or beyond the usual limits of such assays; conditions: source organism: Mycobacterium tuberculosis F11
assay endpoint: Kd (nM)
API: value field is a number in nM; no unit string.

Entry KPKLARGEL , tested on HLA-B*08:01, has a reported Kd of 190

* * *

target: HLA-A*31:01; assay: IEDB peptide-MHC binding, purified MHC/direct/fluorescence; filed as Kd, often an IC50 or EC50 that approximates it; bounds were set here for any values at or beyond the usual limits of such assays; conditions: source organism: Influenza A virus (A/SW/MN/12883/00(H1N2))
pKd: −log10 of the molar value.
assay endpoint: pKd

Reported pKd for FPNEVGARI was ≤ 4.70

* * *

molecular target: HLA-A*29:02; assay: IEDB peptide-MHC binding, purified MHC/competitive/radioactivity; filed as Kd, often an IC50 or EC50 that approximates it; bounds were set here for any values at or beyond the usual limits of such assays; settings: source organism: Mammarenavirus machupoense
This section presents sequences with their documented pKd values.
Convention used: pKd is expressed as -log10 of the molar concentration.

Some solved entries appear below for comparison.
YKELCDAVY | 5.49
CTNFKTQLV | 5.35
EMICFHEFL | 4.95

Sure, the documented pKd for QCGDPSSFEY is 6.22

* * *

target: HLA-A*11:01; experiment: IEDB peptide-MHC binding, purified MHC/direct/fluorescence; filed as Kd, often an IC50 or EC50 that approximates it; bounds were set here for any values at or beyond the usual limits of such assays; details: source organism: Yersinia pestis Nepal516
assay endpoint: Kd

Kd on HLA-A*11:01 for ETIFTVLAL is ≥ 20 µM

* * *

target: HLA-B*15:03; experiment: IEDB peptide-MHC binding, purified MHC/competitive/radioactivity; filed as Kd, often an IC50 or EC50 that approximates it; bounds were set here for any values at or beyond the usual limits of such assays; settings: source organism: Vaccinia virus Copenhagen
assay endpoint: pKd
Would you please state pKd, meaning minus log10 of the concentration in mol/L, as a bare number?

What the record says about FSVSFSPSL : pKd is 7.66

* * *

molecular target: HLA-B*44:02; assay: IEDB peptide-MHC binding, purified MHC/competitive/radioactivity; filed as Kd, often an IC50 or EC50 that approximates it; bounds were set here for any values at or beyond the usual limits of such assays; conditions: source organism: Dengue virus 2 Jamaica/1409/1983
Recorded pKd, one value per entry.
Please treat pKd as minus the base-10 logarithm of the molar concentration.

SENEVKLTI | 9.09
MEKASFIEV | 6.49
RMAILGDTAW | 6.35

Per the reported HLA-B*44:02 data, TELKYSWKTW has pKd of 7.42

* * *

Quick list: pKd per entry.
target: HLA-A*26:01; test: IEDB peptide-MHC binding, purified MHC/competitive/fluorescence; filed as Kd, often an IC50 or EC50 that approximates it; bounds were set here for any values at or beyond the usual limits of such assays; conditions: source organism: Zaire ebolavirus
pKd: −log10 of the molar value.

VLMKQIPIW | ≤ 4.70
TSACGIFLK | ≤ 4.70
NFFHASLAY | ≤ 4.70

Measured pKd, TPSGKRLQI : ≤ 4.70

* * *

target: HLA-B*07:02; test: IEDB peptide-MHC binding, purified MHC/direct/fluorescence; filed as Kd, often an IC50 or EC50 that approximates it; bounds were set here for any values at or beyond the usual limits of such assays; details: source organism: Yersinia pestis
assay endpoint: Kd (µM)
Give just the number in µM; leave the unit off.

The sequence listed as ETIFTVLAL has a reported Kd of 4.5

* * *

target: HLA-A*31:01; experiment: IEDB peptide-MHC binding, purified MHC/competitive/fluorescence; filed as Kd, often an IC50 or EC50 that approximates it; bounds were set here for any values at or beyond the usual limits of such assays; conditions: source organism: Zaire ebolavirus
assay endpoint: Kd

Value of Kd reported for the sequence TSACGIFLK is ≥ 20 µM

* * *

molecular target: HLA-B*15:01; test: IEDB peptide-MHC binding, purified MHC/direct/fluorescence; filed as Kd, often an IC50 or EC50 that approximates it; bounds were set here for any values at or beyond the usual limits of such assays; conditions: source organism: Campylobacter jejuni RM1221
assay endpoint: Kd

So for IYDYLRLLY , the logged Kd turned out to be ≥ 20 µM

* * *

target: HLA-A*33:01; test: IEDB peptide-MHC binding, purified MHC/competitive/radioactivity; filed as Kd, often an IC50 or EC50 that approximates it; bounds were set here for any values at or beyond the usual limits of such assays; settings: source organism: Mammarenavirus brazilense
Readings of pKd for the listed sequences
Scale: negative log10 of molar concentration, which is what pKd denotes.

RALKYDFNH | 5.14

Consider the record given below.
Noted pKd for STYYVHENK , tested on HLA-A*33:01: 6.34

* * *

target: HLA-A*29:02; assay: IEDB peptide-MHC binding, purified MHC/direct/fluorescence; filed as Kd, often an IC50 or EC50 that approximates it; bounds were set here for any values at or beyond the usual limits of such assays; settings: source organism: Zaire ebolavirus
assay endpoint: Kd

Here TSACGIFLK was tested on HLA-A*29:02, and its Kd came to ≥ 20 µM

* * *

biological target: HLA-A*02:16; assay: IEDB peptide-MHC binding, purified MHC/competitive/fluorescence; filed as Kd, often an IC50 or EC50 that approximates it; bounds were set here for any values at or beyond the usual limits of such assays; details: source organism: Burkholderia vietnamiensis G4
assay endpoint: Kd (nM)
Give the value, in units of nM, as a plain number.

For GVNDTEAHA the sequence record lists Kd as 365

* * *

target: HLA-B*40:01; experiment: IEDB peptide-MHC binding, purified MHC/competitive/radioactivity; filed as Kd, often an IC50 or EC50 that approximates it; bounds were set here for any values at or beyond the usual limits of such assays; conditions: source organism: Mammarenavirus lassaense
# reported Kd; entries follow
Quick note: give the figure in µM, leave out the unit.

HDFGIPTPS | 13.7

Entry SEAQMSIQLI : Kd on HLA-B*40:01 = 1.8

* * *

biological target: HLA-B*15:01; test: IEDB peptide-MHC binding, purified MHC/competitive/radioactivity; filed as Kd, often an IC50 or EC50 that approximates it; bounds were set here for any values at or beyond the usual limits of such assays; details: source organism: Dengue virus 3 Martinique/1243/1999
Listed sequences paired with reported Kd
State just the number; it will be interpreted in nM.

As a guide, the following entries are already answered.
RLKGESRKTF | 300
YAQMWSLMYF | 9.91
KLITQFETY | 20.2

Let us move to another entry and its Kd.
Given the sequence SQHNHRPGY and test system HLA-B*15:01, the measured Kd is 91.2
